Answer each item with its documented ED50.
# System: generalized trembling caused by dl-5-hydroxytryptophane
# Method: Test A: potentiation in mice of generalized trembling caused by dl-5-hydroxytryptophane
# Format: in vivo
# Condition Label: Mus musculus, po, mice, potentiation of trembling by dl-5-hydroxytryptophane 200 mg/kg interperitoneal, read-out: Test A ED 50
One number for each entry, in mg/kg.

COCC1CN(c2ccc(OCc3cc(C#N)cc([N+](=O)[O-])c3)cc2)C(=O)O1 (centres unmarked) [compound 161]    1.1
CCC(=O)OCC1CN(c2ccc(OCC3CCCC3)cc2)C(=O)O1 (centres unmarked) [compound 14]    2
CCCCOc1ccc(N2CC(COC(C)=O)OC2=O)cc1 (centres unmarked) [compound 11]    4.2
CCCOCC1CN(c2ccc(OCc3cccc([N+](=O)[O-])c3)cc2)C(=S)O1 (centres unmarked) [compound 210]    26
COCC1CN(c2ccc(OCC3=CCCC3)cc2)C(=O)O1 (centres unmarked) [compound 184]    1.2
CCCCC(=O)OCC1CN(c2ccc(OCC3CCCCC3)cc2)C(=O)O1 (centres unmarked) [compound 104]    6.2

For each of the items listed, what is its ED50?
1. COCC1CN(c2ccc(OCC3CCC(=O)CC3)cc2)C(=O)O1 (centres unmarked) [compound 188]
2. COCC1CN(c2ccc(OCc3ccc(F)c(Cl)c3)cc2)C(=O)O1 (centres unmarked) [compound 163]
3. O=C(OCC1CN(c2ccc(OCC3CCCCC3)cc2)C(=O)O1)C1CCCCC1 (centres unmarked) [compound 121]
4. CC(C)(C)C(=O)OCC1CN(c2ccc(OCc3cccc(Cl)c3)cc2)C(=O)O1 (centres unmarked) [compound 34]
5. OCC1CN(c2ccc(OCc3cccc(Cl)c3)cc2)C(=S)O1 (centres unmarked) [compound 93]

1: 0.3; 2: 1.15; 3: 11; 4: 7; 5: 9

----------
# System: generalized trembling caused by dl-5-hydroxytryptophane
# Method: Test A: potentiation in mice of generalized trembling caused by dl-5-hydroxytryptophane
# Assay type: in vivo
# Condition Label: Mus musculus, po, mice, potentiation of trembling by dl-5-hydroxytryptophane 200 mg/kg interperitoneal, read-out: Test A ED 50
# Procedure: Test A: Potentiation in mice of generalized trembling caused by an interperitoneal injection (200 mg/kg) of dl-5-hydroxytryptophane, following the protocol described by C. GOURET and G. RAYNAUD in J. Pharmacol. (Paris), (1974), 5, 231.
Reported Endpoint: log10(ED50) (log10 of the value in mg/kg)
Short version: log10 scale, ED50, mg/kg.

CC(C)C(=O)OCC1CN(c2ccc(OCC3CCCCC3)cc2)C(=O)O1 (stereo not shown)    0.70

For each of the items listed, what is its log10(ED50)?
1. CC(=O)OCC1CN(c2ccc(OCC3CCCC3)cc2)C(=O)O1 (stereo not shown)
2. OCC1CN(c2ccc(OCC3=CCCCC3)cc2)C(=S)O1 (stereo not shown)
3. COCC1CN(c2ccc(OCc3ccc([N+](=O)[O-])c(Cl)c3)cc2)C(=O)O1 (stereo not shown)
4. CCC(=O)OCC1CN(c2ccc(OCc3cccc([N+](=O)[O-])c3)cc2)C(=S)O1 (stereo not shown)
5. CCOc1ccc(N2CC(CO)OC2=S)cc1 (stereo not shown)
6. CCOCC1CN(c2ccc(OCc3cccc(C#N)c3)cc2)C(=O)O1 (stereo not shown)
7. CCCCC(=O)OCC1CN(c2ccc(OCC3CCCC3)cc2)C(=O)O1 (stereo not shown)
8. CCCCCCCCC(=O)OCC1CN(c2ccc(OCC3CCCC3)cc2)C(=O)O1 (stereo not shown)

[0.48, 1.26, 1.40, 1.00, 1.46, 0.57, 0.23, 0.74]

For each of the items listed, what is its log10(ED50)?
1. CCCCOc1ccc(N2CC(COC(C)C)OC2=O)cc1 (stereo not shown)
2. CCC(=O)OCC1CN(c2ccc(OCc3cccc(Cl)c3)cc2)C(=O)O1 (stereo not shown)
3. CC(C)NCC1CN(c2ccc(OCc3cccc([N+](=O)[O-])c3)cc2)C(=O)O1 (stereo not shown)
4. CC(C)(C)C(=O)OCC1CN(c2ccc(OCc3ccccc3)cc2)C(=O)O1 (stereo not shown)
5. CC(C)OCC1CN(c2ccc(OCc3ccccc3)cc2)C(=O)O1 (stereo not shown)
6. COCC1CN(c2ccc(OCC3CCOCC3)cc2)C(=O)O1 (stereo not shown)

1: 1.26; 2: 0.81; 3: 0.87; 4: 1.40; 5: 1.70; 6: 0.34

For each of the items listed, what is its log10(ED50)?
1. CC(=O)OCC1CN(c2ccc(OCc3ccccc3)cc2)C(=O)O1 (stereo not shown)
2. CN(C)CC1CN(c2ccc(OCc3cccc(C#N)c3)cc2)C(=O)O1 (stereo not shown)
3. COCC1CN(c2ccc(OCc3cccc([N+](=O)[O-])c3)cc2)C(=O)S1 (stereo not shown)
4. N#CCCOc1ccc(N2CC(COC3CCCCC3)OC2=O)cc1 (stereo not shown)

1. 1.08
2. 0.78
3. 0.85
4. 1.15

These measurements were taken from patent US4348393A.
